src = PubChem BioAssay (NCI)

Tested on: 786-0 renal
Experiment: NCI tumour cell line growth inhibition, 48 h; in the data active = GI50 below about 0.43 µM; inactive = the rest
Labels: true for active, false for inactive

>>> qualitative_label("C#CCOc1ccc2ncnc(Nc3ccc(NC(=O)C=C)cc3)c2c1")
"false"
>>> qualitative_label("COc1ccc(N(C)c2nc(N)nc3sc4c(c23)CCCC4)cc1")
"true"
>>> qualitative_label("COc1ccc(/C(C#N)=C2C=C/C(=N/O)c3ccccc3\\2)cc1")
"false"
>>> qualitative_label("O=[N+]([O-])c1cccc(C2CC(c3ccccc3)=Nc3ccccc3S2)c1 (configuration not stated)")
"false"
>>> qualitative_label("Cn1c(-c2c(N)n(CCCN3CCOCC3)c3nc(C#N)c(C#N)nc23)nc2ccccc21")
"false"
>>> qualitative_label("CC(=O)c1c(C)[nH]c(-c2nc3ccc(N4CCN(C)CC4)cc3[nH]2)c1-c1ccccc1")
"false"
>>> qualitative_label("CCOC(=O)c1cnc2c(C)cccc2c1Nc1ccc(C(C)=O)cc1")
"false"
>>> qualitative_label("COC(=O)[C@H]1CCCN1C(=O)[C@H]1CCCN1C(=O)[C@H](Cc1c[nH]c2ccccc12)NC(=S)Nc1cc(C(F)(F)F)cc(C(F)(F)F)c1")
"false"
>>> qualitative_label("O=C1NC(=NCCCc2ccccc2)S/C1=C\\c1ccc2ncccc2c1")
"false"
>>> qualitative_label("CN(CC(=O)N(Cc1ccc(C2CCCCC2)cc1)c1ccc(C(=O)O)cc1)S(=O)(=O)c1c(F)c(F)c(F)c(F)c1F")
"false"
>>> qualitative_label("CC[n+]1c(/C=C/C=C2\\N(C)c3ccccc3C2(C)C)sc2ccccc21")
"false"
>>> qualitative_label("N=c1c2c(=N)n3c(nc2nc2n1-c1ccccc1Sc1ccccc1-2)sc1cc(Cl)ccc13")
"false"
>>> qualitative_label("N#CC1c2ccccc2C=CN1C(=O)N(c1ccccc1)c1ccccc1 (configuration not stated)")
"false"
>>> qualitative_label("CN(Cc1cnc2nc(N)nc(N)c2n1)c1ccc(C(=O)NC(CCC(=O)O)C(=O)O)cc1Br (configuration not stated)")
"true"
>>> qualitative_label("O=C1Cc2cc(C(=O)NC3C[C@H]4CC[C@@H](C3)N4S(=O)(=O)CC3CCN(CCCC(F)(F)F)CC3)c(Cl)cc2N1 (some centres not stated)")
"false"
>>> qualitative_label("CO[C@H]1C[C@@H]2CC[C@@H](C)[C@@](O)(O2)C(=O)C(=O)N2CCCC[C@H]2C(=O)O[C@H]([C@H](C)C[C@@H]2CC[C@@H](OCCO)[C@H](OC)C2)CC(=O)[C@H](C)C=C(C)[C@@H](O)[C@@H](OC)C(=O)[C@H](C)C[C@H](C)/C=C/C=C/C=C1C")
"true"
>>> qualitative_label("CCn1c(-c2nonc2N)nc2cncc(C(=O)N3CC[C@H](N)C3)c21")
"false"

====

Tested on: SW-620 colon
Assay: NCI tumour cell line growth inhibition, 48 h
observed property: TGI

>>> value("N#CC1c2ccccc2C=CN1C(=O)N(c1ccccc1)c1ccccc1 (centres undefined)")
"5.3 µM"
>>> value("COc1ccc(/C=N/n2cnc3[nH]c(C)c(Cc4ccccc4)c3c2=N)cc1")
"> 100 µM"
>>> value("CCC(=O)c1c(C(F)(F)F)n([O-])c2cc(F)c(F)cc2[n+]1=O")
"2.21 µM"
>>> value("COc1ccc2c(OCc3nnc4ccc(-c5ccccc5)nn34)ccnc2c1")
"> 100 µM"
>>> value("CCn1c(-c2nonc2N)nc2cncc(C(=O)N3CC[C@H](N)C3)c21")
"> 25 µM"
>>> value("O=C(Nc1nc2ccccc2s1)Nc1ccc([N+](=O)[O-])cc1Cl")
"7.82 µM"
>>> value("CC(C)(C)C(C#N)(C#N)c1ccc(C(C#N)(C#N)C(C)(C)C)nn1")
"> 100 µM"
>>> value("CCOC(=O)COc1ccc2c(C)cc(=O)oc2c1")
"> 100 µM"
>>> value("CC1(c2ccc(Cl)cc2)C2C(=O)NC(=O)C1C(=O)NC2=O (centres undefined)")
"> 100 µM"
>>> value("CC(SC(=O)Nc1ccc(N=Nc2ccccc2)cc1)C(=O)O (centres undefined)")
"> 100 µM"
>>> value("C/C(=C\\c1csc(C)n1)[C@@H]1C[C@@H]2O[C@@H]2CCC[C@H](C)[C@H](O)[C@@H](C)C(=O)C(C)(C)[C@@H](O)CC(=O)O1")
"18.7 µM"
>>> value("CCn1c(SCC(=O)NNC(=S)NC)nc2ccccc2c1=O")
"> 100 µM"
>>> value("NNC(=O)c1cc(=O)[nH][nH]1")
"> 100 µM"
>>> value("CC(=O)Oc1ccc(/C=C/C(=O)O[C@@H](C(=O)O)[C@@H](OC(=O)/C=C/c2ccc(OC(C)=O)c(OC(C)=O)c2)C(=O)O)cc1OC(C)=O")
"> 100 µM"
>>> value("COC(OC)[C@@H]1OC[C@@H](O)[C@@H]1n1cnc2c(N)ncnc21")
"> 100 µM"
>>> value("CC(=O)[CH-]C(=O)c1ccccc1.CC(=O)[CH-]C(=O)c1ccccc1.C[C@]12CCC(=O)C=C1CC[C@@H]1C2CC[C@@]2(C)C1CC[C@]2(C)[O-].C[C@]12CCC(=O)C=C1CC[C@@H]1C2CC[C@@]2(C)C1CC[C@]2(C)[O-].Cl.[Ti+4] (some centres undefined)")
"30 µM"
>>> value("C[C@H](C/C=C/C(C)(C)O)[C@H]1CC[C@@]2(C)[C@@H]3CC[C@H]4C(C)(C)[C@@H](O)CC[C@@]45C[C@@]35CC[C@]12C")
"65.4 µM"
>>> value("CCOC(=O)Cc1nc2c(N)ncnc2n1C1OC(COC(C)=O)C(OC(C)=O)C1OC(C)=O (centres undefined)")
"> 100 µM"
>>> value("Cn1cc(C2=C(c3cn(CCCCCSC(=N)N)c4ccccc34)C(=O)NC2=O)c2ccccc21")
"6.54 µM"
